# Experimental target: Torsin-1A-interacting protein 2 (Homo sapiens) (UniProt Q8NFQ8)
# Sequence (Q8NFQ8 whole entry, looked up): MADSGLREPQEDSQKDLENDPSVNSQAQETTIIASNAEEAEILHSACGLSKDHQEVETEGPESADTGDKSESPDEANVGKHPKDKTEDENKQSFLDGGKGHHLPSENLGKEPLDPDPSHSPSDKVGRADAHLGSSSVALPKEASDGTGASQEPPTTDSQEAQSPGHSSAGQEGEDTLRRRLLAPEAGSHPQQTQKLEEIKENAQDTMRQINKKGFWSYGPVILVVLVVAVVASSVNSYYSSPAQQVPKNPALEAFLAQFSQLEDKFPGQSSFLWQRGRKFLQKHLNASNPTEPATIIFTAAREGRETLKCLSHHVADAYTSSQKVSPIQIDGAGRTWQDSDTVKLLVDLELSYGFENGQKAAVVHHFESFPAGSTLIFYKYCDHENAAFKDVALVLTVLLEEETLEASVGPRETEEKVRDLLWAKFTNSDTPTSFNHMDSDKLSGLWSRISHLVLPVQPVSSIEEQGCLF
# Experiment: LULL1 binders on small-molecule microarray, primary screen, cell lysate, human LULL1 lysate, 635/667 nm fluorescence (AID 1092);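 note: probe is lysate of COS7 cells overexpressing human LULL1; score merges per-feature 667 nm fluorescence with signal-to-noise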
# Particulars: hLULL1 lysate binding, 635 nm fluorescence, higher = more signal
Kindly supply the reported composite z-score values for the records listed here.

Some compounds with known composite z-score results, for comparison:
{"columns": ["Chemical string", "Experimental target", "composite z-score"],
 "data": [
  ["C=CCOC(=O)[C@@H]1[C@H]2C(=O)O[C@H](c3ccccc3)[C@H](c3ccccc3)N2[C@H](c2ccc(OCCOC(=O)[C@@H]3C[C@@H]4C(=O)N[C@@H](Cc5ccccc5)C(=O)N4[C@@H]3c3cccc(OCCO)c3)cc2)[C@@]12C(=O)Nc1ccc(I)cc12", "Torsin-1A-interacting protein 2 (Homo sapiens) (UniProt Q8NFQ8)", 1.83],
  ["O=c1cccc(C=Cc2ccccc2)o1", "Torsin-1A-interacting protein 2 (Homo sapiens) (UniProt Q8NFQ8)", -0.756],
  ["COc1ccc([Si](C)(C)[C@@H]2[C@@H](CCn3cc([C@H](O)c4ccccc4)nn3)O[C@]3(C(=O)N(Cc4ccc(N5C(=O)c6cccc7cccc5c67)cc4)c4ccccc43)[C@H]2C)cc1", "Torsin-1A-interacting protein 2 (Homo sapiens) (UniProt Q8NFQ8)", 1],
  ["O=C1O[C@H](c2ccccc2)[C@H](c2ccccc2)N2[C@H]1[C@@H](C(=O)N1CCN(c3ncccn3)CC1)[C@]1(C(=O)Nc3ccccc31)[C@H]2c1ccc(OCCO)cc1", "Torsin-1A-interacting protein 2 (Homo sapiens) (UniProt Q8NFQ8)", 2.35],
  ["CCOC(=O)C1=CC[C@@H](c2ccccc2)N(S(=O)(=O)c2ccc(C)cc2)[C@H]1C(=O)OCC", "Torsin-1A-interacting protein 2 (Homo sapiens) (UniProt Q8NFQ8)", 1.14]
]}

Now look at this entry.
Can you look up the measured composite z-score of CN(C)CCCCNC(=O)[C@H]1C[C@H]2C(=O)N[C@@H](Cc3ccccc3)C(=O)N2[C@H]1c1ccc(O)cc1 for me?
0.248
